Biological target: T1, cynomolgus monkey IL-33 expressed with a C-terminal hexahistidine tag (cynomolgus monkey)
T1 construct: also called MfIL-33-6His; Mf-IL-33-6His
T1 chain: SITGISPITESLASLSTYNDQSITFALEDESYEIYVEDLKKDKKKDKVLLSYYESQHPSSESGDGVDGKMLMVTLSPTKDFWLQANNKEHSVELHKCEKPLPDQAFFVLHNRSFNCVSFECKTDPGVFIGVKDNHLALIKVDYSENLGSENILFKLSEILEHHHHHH
Experiment: SPR 25C pH7.4, mAb captured
attribute_measured: t½ (min)
Report as a plain number; the unit min is understood.

Q) Quick one: t½ of H1M9566N (antibody, mouse IgG1, V domains shown, Human variable domains, mouse IgG1 Fc (H1M)) VH: EVQLLESGGDLVQPGGSLRLSCAASGFTFSSYAMSWVRQAPGKGLEWVSVISGSGSSTDYADSVKGRFTISRDNSRDTLHLQMNSLRAEDTAVYYCAKTFYYFYGLDVWGQGTTVTVSS VL: DIQMTQSPSSLSASLRDRVTITCRASQGISNYLAWYQQKPGKVPKVLIYAASTLQSGVPSRFSGSGSGTVFTLTISSLQTEDVATYYCQKYSSAPFTFGPGTKVDIK ?
A) 119

Q) // repeat for H1M9568N (antibody, mouse IgG1, V domains shown, Human variable domains, mouse IgG1 Fc (H1M)) VH: QVLLVQSGAEVKKPGATVKVSCKASGSTFTGYYMHWVRQAPGQGLEWMGWINPNNGGTNYAQKFQGRVTMTRDTSISTAYMELSRLRSDDTAVYYCARELRYNWKSWGQGTLVTVSS VL: EIVLTQSPGTLSLSPGERVTLSCRASQSVGRPYLAWYQQIPGQAPRLLIYGASSRATDIPDRFSGNGSGTDFTLTISRLEPEDFAVYYCQQYDNSPYTFGQGTRLEIK and report
A) 44

Q) // repeat for H4H9659P (antibody, human IgG4, V domains shown, Human IgG4 Fc (H4H)) VH: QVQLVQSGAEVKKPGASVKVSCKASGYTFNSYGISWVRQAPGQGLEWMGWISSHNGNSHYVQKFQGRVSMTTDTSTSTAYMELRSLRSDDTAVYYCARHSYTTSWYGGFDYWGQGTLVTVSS VL: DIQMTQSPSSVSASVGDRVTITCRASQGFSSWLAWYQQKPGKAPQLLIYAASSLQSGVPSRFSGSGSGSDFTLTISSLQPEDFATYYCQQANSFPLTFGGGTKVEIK and report
A) 24

Q) // repeat for H4H9664P (antibody, human IgG4, V domains shown, Human IgG4 Fc (H4H)) VH: QVQLVESGGGVVQPGRSLRLSCAASGFTFSSYGLHWVRQSPGKGLEWVALISYDGSNKYYADSVKGRFTISRDNSKNTLYLQMNSLRPEDTAGYFCAKSLYTTSWYGGFDYWGQGTLVTVSS VL: DIQMTQSPSSVSASVGDRVTITCRASQGIRSWLAWYQQKPGKAPNLLIYAASSLQSGVPSRFSGSGSGTDFTLTISSLQPEDFATYYCQQANSFPPTFGPGTKVDIK and report
A) 7

// next item, t½ requested
Q) Quick one: t½ of H4H9676P (antibody, human IgG4, V domains shown, Human IgG4 Fc (H4H)) VH: EVQLVESGGGLVQPGGSLRLSCSASGFTFSSYAMNWVRQAPGKGLEWVTAISGSGGGTYYADSVKGRFTISRDNSKNSLFLQLNSLRAEDTAVYYCAKQTYTSSWYGGFDIWGQGTMVTVSS VL: DIQMTQSPSSVSASVGDRVTITCRASQGFSSWLAWYQQIPGKAPKLLIYAASRLQSGVPSRFRGSGSGTDFTLTISSLQPEDFATYYCQQANSFPLTFGGGTKVEIK ?
A) 2.8
